Test system: SF-295 CNS
Assay: NCI tumour cell line growth inhibition, 48 h
The following molecules are listed with their measured log10(TGI) values.
Field: value | Transform: log10 | Quantity: TGI | Unit: µM

// solved cases for log10(TGI) follow
CC[C@H](C)[C@H](NC(=O)C12CC(NC)(C1)C2)C(=O)N(C)[C@H](C[C@@H](OC(C)=O)c1nc(C(=O)N[C@@H](Cc2ccccc2)C[C@H](C)C(=O)OC)cs1)C(C)C; 0.34
Fc1cc(-c2csc3n[nH]c(=S)n23)c(Cl)cc1Cl; 1.70
COc1ccc(SS(=O)(=O)c2ccc(OC)cc2)cc1; 1.59
O=S(=O)(Nc1cccc(Cl)c1)c1ccc(-c2cnc(C3CC3)o2)cc1; 1.08
C=C[C@]1(C)CC(O)C2C(=C)C(=O)OC2[C@H]1C(=C)C=O (some centres not stated); 1.48

--- query ---
Tell me the measured log10(TGI) of Cc1ccc(/C(O)=C/c2nc3ccccc3[nH]c2=O)cc1 , please. 1.16

----------
OVCAR-5 ovarian: recorded GI50 for assorted compounds

COc1ccccc1NC(=O)c1ccc(NC2=C(Cl)C(=O)N(Cc3ccccc3)C2=O)cc1; 44.1 µM

Tell me the measured GI50 of COC(=O)c1ccc2[nH]c(O)c(C(=Nc3ccc(N(C)C(=O)CN4CCN(C)CC4)cc3)c3cccc(OC)c3)c2c1 , please. 2.29 µM

Next compound: COC(=O)c1oc2c(C(C)=O)c(OCCN3CCOCC3)c(OC)cc2c1C > 100 µM

Next compound: N#Cc1cc2c(cc1Cl)SC(=Nc1ccccc1)N(S(=O)(=O)c1ccc(Cl)cc1)S2(=O)=O 16.8 µM

Next compound: O=C1Nc2ccccc2/C1=C/C(=N/c1nnc(-c2ccc(Cl)cc2)s1)c1ccccc1 1.81 µM

Next compound: C=C1CC[C@@H]2C(C)(C)[C@H](O)CC[C@@]2(C)[C@@H]1COc1ccc2ccc(=O)oc2c1 38.2 µM

----------
Tested on: HCT-116 colon
Test: NCI tumour cell line growth inhibition, 48 h
The following compounds are listed with their measured TGI values.

CN1CCCN(C)CCCN(C)CCCN(C)CCC1; > 100 µM
CC(=O)N(C(C)=O)c1c(N)n(C)c(=O)[nH]c1=O; > 100 µM

--- query ---
Lab request: please report TGI under test system HCT-116 colon for COC(=O)C1C(O)C(C)C(O)C(C)(O)C=C(C)C2=C3C(=C(C)C(=O)c4c(O)c(c(C)c(OC(C)=O)c43)NC(=O)C(C)=C/C=C\C(C)(O)C(O)C(C)C1O)OCO2 (stereo not drawn) > 100 µM

----------
Tested on: UACC-257 melanoma
Experiment: NCI tumour cell line growth inhibition, 48 h
The following compounds are listed with their measured TGI values.

// solved cases for TGI follow
NC12CC3C4CC5(N)CC3C(C1)C(C5)C4C2; > 100 µM
NC(N)=NCCCC(NC(=O)OCCCCCn1ccc(N)nc1=O)C(=O)O (stereo unspecified); > 100 µM
Cc1n[nH]c(=O)n1/N=C/c1cccc(Cl)c1; > 100 µM
COC(=O)C12C3C4C1C1C2C3C41C(=O)NC(C)(C)CC(=O)O (stereo unspecified); > 100 µM
Cc1ccc(N=Nc2c(O)c(C(=O)O)cc3ccccc23)c(S(=O)(=O)O)c1; > 100 µM

Lab request: please report TGI under test system UACC-257 melanoma for c1ccc(CNc2ccc3[nH]c4cnccc4c3c2)cc1 31.4 µM

Next compound: [N-]=[N+]=NCC1OCC(O)C(OCc2ccccc2)C1OCc1ccccc1 (stereo unspecified) > 100 µM

Next compound: C=C1C(=O)O[C@H]2[C@H]1CC/C(COC(=O)NCc1ccc(Cn3c(=O)sn(CCCC)c3=O)cc1)=C\CC[C@@]1(C)O[C@@H]21 4.93 µM

Next compound: CN(c1nc(=[N+](C)C)ss1)C1CCCCC1 > 100 µM
